Property Label: melting point

These solved cases illustrate the format of a correct answer.
Compound | melting point
CCCCOC(=O)C=C(C)C=CC=C(C)C=Cc1c(C)cc(C)c([N+](=O)[O-])c1C | 205 to 206 °C
CCOC(=O)c1[nH]c(C)c(CC)c1CC | 76 to 77 °C
Nc1n[nH]c2nc3cc(O)ccc3cc12 | > 300 °C
CCn1c(COC(=O)NC(=O)c2ccc(Cl)cc2)nc(C(C)C)c1Sc1cc(Cl)cc(Cl)c1 | 82 to 83 °C
COC(=O)C1CCSSC(C)(C)C(=O)N1 (stereo not given) | 110 to 112 °C
Nc1nc2ccccc2c2c1nc(CCCOc1ccccc1)n2CCCNC(=O)N1CCOCC1 | 199 to 200 °C

Tell me melting point reported for COc1ccc(S(=O)(=O)C2CC(=O)NC2=O)cc1 (stereo not given)
144 to 146 °C

Tell me melting point reported for COc1ccc(C(=O)c2cc([N+](=O)[O-])ccc2Cl)cc1OC
138 °C

Tell me melting point reported for Cc1cc(C)c(C(=O)P(=O)(c2ccccc2)c2ccccc2)c(C)c1Cl
125 to 126 °C

Tell me melting point reported for O=S(=O)(c1c(-c2cc(Cl)cc(Cl)c2)[nH]c2c(Cl)cc(Cl)cc12)C(F)(F)F
300 to 302 °C

* * *

Each item that follows carries a reported melting point.

Molecule | Observed Value
Cc1ccc(Cc2cnc(NCCSCc3cccc(CN(C)C)c3)[nH]c2=O)cn1 | 122 to 125 °C
OCC[C@H]1[C@@H]2O[C@@H]2C(F)(F)[C@@H]1O | 59 to 59.5 °C
COc1cccc(CNC(=O)c2nc3ccc(O)cc3c(=O)[nH]2)c1 | 268 to 271 °C
O=c1ccc(-c2ccc([N+](=O)[O-])c(C(F)(F)F)c2)n[nH]1 | 238 to 241 °C
CC(=N)Nc1cccc(C#N)c1 | 228 to 230 °C
CSc1nc2ccnn2c(NCc2ccco2)c1C#N | 110 °C

Tell me melting point reported for COc1cc2oc(=O)c3c(c2cc1OC)CCNC3
186 to 188 °C

Tell me melting point reported for CCCC1=C(C#N)C(c2cccc(N3CCOCC3)c2)c2c[nH]nc2N1 (configuration not stated)
196 to 200 °C

Tell me melting point reported for COc1cc(N)c(Cl)cc1C(=O)Cl
242 °C

Tell me melting point reported for CCCC1(C)C(C#N)C(=O)NC(=O)C1C#N (configuration not stated)
204 to 205 °C

Tell me melting point reported for C=CCOc1cc(-c2cc(=O)c3c(OC)cc(OCC4=COC(C)(C)O4)cc3o2)ccc1OC
156 °C

Tell me melting point reported for COc1ccc2c(c1)c(CC#N)cn2C(=O)OC(C)(C)C
130 °C

* * *

Property Label: melting point

These solved cases illustrate the format of a correct answer.
Compound | melting point
CCNC(=S)NS(=O)(=O)c1cc2c(cc1OC)OC(C)(C)C(NC(=O)c1cc(F)ccc1OC)C2 (stereo not drawn) | 211 °C
Fc1ccc(N2CCN(CCCN(c3ccccc3)c3ccccc3)CC2)cc1 | 87 to 88 °C
COc1c(Br)c(CO)c(OC)c2ccccc12 | 115 to 117 °C
O=C(Nc1ccc(Cl)cc1)O[C@@H]1CN=C(c2ccccc2)O[C@H]1c1ccccc1 (racemic) | 124 °C
CCCCCCCc1[nH]c2cc(C(=O)OC)ccc2c1C=O | 177 to 180 °C

Tell me melting point reported for CC12CCC(C(=O)O)=CC1=CCC1C2CCC2(C)C(C(=O)CCCc3ccccc3)CCC12 (stereo not drawn)
208 to 210 °C
